Below, each of the molecules is paired with its reported solubility value.
test: physchem; conditions: aqueous (not further specified)
Description: Aqueous solubility of the compound
recorded endpoint: solubility (µg/mL)

[[record]]
molecule = "O=C1N[C@@H]2C(=C[C@H](O)[C@H]3OP(=O)([O-])O[C@H]32)c2cc3c(c(O)c21)OCO3.[K+] [POTASSIUM NARCISTATIN]"
operator = "="
measured = 11000

[[record]]
molecule = "O=C1N[C@@H]2C(=C[C@H](O)[C@H]3OP(=O)([O-])O[C@H]32)c2cc3c(c([O-])c21)OCO3.[Mg+2] [MAGNESIUM NARCISTATIN]"
operator = "<"
measured = 1500

[[record]]
molecule = "O=C1N[C@@H]2C(=C[C@H](O)[C@H]3OP(=O)([O-])O[C@H]32)c2cc3c(c([O-])c21)OCO3.[Ca+2] [CALCIUM NARCISTATIN]"
operator = "<"
measured = 1000

[[record]]
molecule = "C1COCCN1.O=C1N[C@@H]2C(=C[C@H](O)[C@H]3OP(=O)(O)O[C@H]32)c2cc3c(c(O)c21)OCO3 [MORPHOLINIUM NARCISTATIN]"
operator = ">"
measured = 13000

[[record]]
molecule = "O=C1N[C@@H]2C(=C[C@H](O)[C@H]3OP(=O)([O-])O[C@H]32)c2cc3c(c(O)c21)OCO3.[Li+] [LITHIUM NARCISTATIN]"
operator = ">"
measured = 50000

[[record]]
molecule = "O=C1N[C@@H]2C(=C[C@H](O)[C@H]3OP(=O)([O-])O[C@H]32)c2cc3c(c(O)c21)OCO3.[Cs+] [CESIUM NARCISTATIN]"
operator = "<"
measured = 13000

[[record]]
molecule = "O=C1N[C@@H]2C(=C[C@H](O)[C@H]3OP(=O)([O-])O[C@H]32)c2cc3c(c(O)c21)OCO3.[Na+] [SODIUM NARCISTATIN]"
operator = "="
measured = 60000

[[record]]
molecule = "O=C1N[C@@H]2C(=C[C@H](O)[C@H]3OP(=O)(O)O[C@H]32)c2cc3c(c(O)c21)OCO3.c1c[nH]cn1 [IMIDAZOLIUM NARCISTATIN]"
operator = "="
measured = 5800

[[record]]
molecule = "O=C1N[C@@H]2C(=C[C@H](O)[C@H]3OP(=O)([O-])O[C@H]32)c2cc3c(c(O)c21)OCO3.O=C1N[C@@H]2C(=C[C@H](O)[C@H]3OP(=O)([O-])O[C@H]32)c2cc3c(c(O)c21)OCO3.[Zn+2] [ZINC NARCISTATIN]"
operator = "="
measured = 1700

[[record]]
molecule = "C1CNCCN1.O=C1N[C@@H]2C(=C[C@H](O)[C@H]3OP(=O)(O)O[C@H]32)c2cc3c(c(O)c21)OCO3 [PIPERAZINIUM NARCISTATIN]"
operator = "="
measured = 1900

[[record]]
molecule = "O=C1N[C@@H]2C(=C[C@H](O)[C@H]3OP(=O)(O)O[C@H]32)c2cc3c(c(O)c21)OCO3 [NARCISTATIN]"
operator = "="
measured = 4000

